Assay: Oral bioavailability in mouse
Format: ADME, organism-based
Conditions: in vivo
Measured attribute: bioavailability

# compound C[C@@H]1/C=C\C(=O)[C@@H](O)[C@@H](O)C/C=C/c2c(c(O)cc3c2ncn3C)C(=O)O[C@H]1C ; its bioavailability = 49%

# compound C[C@@H]1/C=C\C(=O)[C@@H](O)[C@@H](O)C/C=C/c2cc(N)cc(O)c2C(=O)O[C@H]1C ; its bioavailability = 49%

# compound C[C@@H]1/C=C\C(=O)[C@@H](O)[C@@H](O)C/C=C/c2cc(N(C)C)cc(O)c2C(=O)O[C@H]1C ; its bioavailability = 21%

# compound C[C@@H]1/C=C\C(=O)[C@@H](O)[C@@H](O)C/C=C/c2cc(N3CCOCC3)cc(O)c2C(=O)O[C@H]1C ; its bioavailability = 48%

# compound CNc1cc(O)c2c(c1)/C=C/C[C@H](O)[C@H](O)C(=O)/C=C\[C@@H](C)[C@H](C)OC2=O ; its bioavailability = 29%

# compound CCNc1cc(O)c2c(c1)/C=C/C[C@H](O)[C@H](O)C(=O)/C=C\[C@@H](C)[C@H](C)OC2=O ; its bioavailability = 12%
